Provenance of the data: patent US20240041042A1

Provide the reported Pre-emergence action against POLCO in % of each item.
# Tested on: Polygonum convolvulus (POLCO)
# Experimental Protocol: Pre-emergence herbicidal action against POLCO
# Type: in vivo
# Condition Notes: dosage 320 g/ha
Answers are plain numbers, in %.

Kindly give each listed record's Pre-emergence action against POLCO in %.
1. CCOC(=O)[C@@H](C)Oc1nn(-c2ncccc2F)c(-c2ccc(F)nc2)c1Br
2. COC(=O)CSc1nn(-c2ccccn2)c(-c2cncc(F)c2)c1Br

Result string:
1. 100
2. 90

Kindly give each listed record's Pre-emergence action against POLCO in %.
1. COC(=O)[C@@H](C)Oc1nn(-c2nc(F)ccc2F)c(-c2cncc(F)c2)c1Cl
2. COCCOC(=O)COc1nn(-c2ncccc2C(F)(F)F)c(-c2ccc(F)nc2)c1Cl

Result string:
90
80

Kindly give each listed record's Pre-emergence action against POLCO in %.
1. CCOC(=O)CCNC(=O)COc1nn(-c2ncccc2F)c(-c2ccc(OC)nc2)c1Br
2. CCOC(=O)COc1nn(-c2ncccc2C(F)(F)F)c(-c2ccc(F)nc2)c1Cl
3. O=C(O)CSc1nn(-c2ccccn2)c(-c2cncc(F)c2)c1Cl
4. O=C(O)CSc1nn(-c2ccccn2)c(-c2cncc(Cl)c2)c1Br

Result string:
90
90
80
90

----------
Provide the reported Post-emergence action against TRZAS in % of each item.
# System: Triticum aestivum (TRZAS)
# Format: in vivo
# Condition Notes: crop plant compatibility, 80 g/ha, effect vs untreated controls
# Experimental: Seeds of monocotyledonous and dicotyledonous weeds and crop plants are placed in sandy loam in plastic or organic planting pots, covered with soil and cultivated in a greenhouse under controlled growth conditions. 2 to 3 weeks after sowing, the test plants are treated at the one-leaf stage. […]
One number for each entry, in %.

Example compounds with recorded Post-emergence action against TRZAS in %:
{"columns": ["Compound", "Post-emergence action against TRZAS in %, %"],
 "data": [
  ["COC(=O)COc1nn(-c2ncccc2F)c(-c2cncc(F)c2)c1Br", 10],
  ["CCOC(=O)C[S+]([O-])c1nn(-c2ccccn2)c(-c2cncc(F)c2)c1Cl (stereo not shown)", 0]
]}

Kindly give each listed record's Post-emergence action against TRZAS in %.
1. COC(=O)CNC(=O)[C@@H](C)Oc1nn(-c2ccccn2)c(-c2cncc(F)c2)c1Br
2. COC(=O)CCOC(=O)COc1nn(-c2ccccn2)c(-c2ccc(Cl)nc2)c1Cl
3. CCOC(=O)C1CCN(C(=O)COc2nn(-c3ccccn3)c(-c3ccc(F)nc3)c2Br)CC1
4. COC(=O)CCOC(=O)COc1nn(-c2ccccn2)c(-c2ccc(F)nc2)c1C1CC1(F)F (stereo not shown) [Example I-248]
5. O=C(COc1nn(-c2ncccc2C(F)(F)F)c(-c2cncc(F)c2)c1Br)OCC1CCOC1 (racemic)

Result string:
1: 20; 2: 20; 3: 0; 4: 0; 5: 10

Kindly give each listed record's Post-emergence action against TRZAS in %.
1. CCOC(=O)COc1nn(-c2ccccn2)c(-c2ccc(F)nc2)c1C1CC1
2. COC(=O)CCOC(=O)COc1nn(-c2cccnc2C)c(-c2cncc(F)c2)c1Br
3. COC(=O)CNC(=O)COc1nn(-c2cccc(C)n2)c(-c2ccc(F)nc2)c1Br
4. O=C(O)COc1nn(-c2ccnc(F)c2)c(-c2ccc(F)nc2)c1Br
5. O=C(O)CSc1nn(-c2ccccn2)c(-c2ccc(F)nc2)c1Br
6. O=C(O)COc1nn(-c2ccncc2)c(-c2ccc(F)nc2)c1Br
7. C[C@H](NC(=O)COc1nn(-c2ccnc(F)c2)c(-c2ccc(F)nc2)c1Br)C(=O)O
8. CCOC(=O)COc1nn(-c2ccccn2)c(-c2cncc(F)c2)c1Cl

Result string:
1. 20
2. 0
3. 10
4. 20
5. 0
6. 0
7. 0
8. 0

Kindly give each listed record's Post-emergence action against TRZAS in %.
1. COC(=O)CCOC(=O)COc1nn(-c2cccc(C)n2)c(-c2ccc(F)nc2)c1Cl
2. Cc1cccc(-n2nc(OCC(=O)O)c(Cl)c2-c2ccc(F)nc2)n1
3. COc1cccnc1-n1nc(OCC(=O)O)c(Br)c1-c1ccc(F)nc1
4. COC(=O)CNC(=O)COc1nn(-c2ccccn2)c(-c2ccc(F)nc2)c1F
5. O=C(O)COc1nn(-c2ccccn2)c(-c2ccc(F)nc2)c1C1CC1(F)F (stereo not shown)
6. CCOC(=O)COc1nn(-c2cccc(C)n2)c(-c2ccc(F)nc2)c1Br
7. O=C(O)CNC(=O)COc1nn(-c2ccnc(F)c2)c(-c2ccc(F)nc2)c1Br
8. COC(=O)COc1nn(-c2ncccc2OC)c(-c2ccc(F)nc2)c1Cl

Result string:
[0, 0, 0, 0, 0, 20, 20, 10]

Kindly give each listed record's Post-emergence action against TRZAS in %.
1. COCCOC(=O)COc1nn(-c2cccnc2C)c(-c2cncc(F)c2)c1Br
2. CCOC(=O)COc1nn(-c2ccncc2)c(-c2ccc(F)nc2)c1Br
3. O=C(O)COc1nn(-c2ncccc2C(F)(F)F)c(-c2cncc(F)c2)c1I
4. O=C(O)COc1nn(-c2ncccc2C(F)(F)F)c(-c2cncc(F)c2)c1Br
5. COC(=O)CNC(=O)COc1nn(-c2cccnc2C)c(-c2cncc(F)c2)c1Br
6. O=C(COc1nn(-c2ccnc(Cl)c2)c(-c2ccc(F)nc2)c1Br)NS(=O)(=O)CC(F)(F)F

Result string:
20
0
10
10
0
0

----------
# Test system: Viola tricolor (VIOTR)
# Experimental Protocol: Post-emergence herbicidal action against VIOTR
# Assay type: in vivo
# Condition Notes: 320 g/ha
# Experimental: Seeds of monocotyledonous and dicotyledonous weeds and crop plants are placed in sandy loam in plastic or organic planting pots, covered with soil and cultivated in a greenhouse under controlled growth conditions. 2 to 3 weeks after sowing, the test plants are treated at the one-leaf stage. […]
Provide the reported Post-emergence action against VIOTR in % of each item.

{"columns": ["Molecule", "Result"],
 "data": [
  ["CCOC(=O)CNC(=O)COc1nn(-c2ncccc2F)c(-c2ccc(OC)nc2)c1Br", "90%"]
]}

Kindly give each listed record's Post-emergence action against VIOTR in %.
1. CCOC(=O)COc1nn(-c2ncccc2F)c(-c2ccnc(F)c2)c1I
2. COC(=O)[C@@H](C)Oc1nn(-c2ncccc2F)c(-c2ccnc(F)c2)c1I
3. COC(=O)COc1nn(-c2ncccc2Cl)c(-c2ccc(F)nc2)c1Br
4. CC(C)OC(=O)COc1nn(-c2ncccc2F)c(-c2ccc(F)nc2)c1C1CC1
5. COC(=O)CCOC(=O)COc1nn(-c2ccccn2)c(-c2ccc(F)nc2)c1Br
6. O=C(O)CSc1nn(-c2ccccn2)c(-c2cncc(F)c2)c1C1CC1
7. COC(=O)CCOC(=O)COc1nn(-c2ncccc2F)c(-c2ccc(F)nc2)c1C1CC1
8. O=C(COc1nn(-c2ncccc2F)c(-c2ccc(F)nc2)c1C1CC1)OCC1COC1

Result string:
["80%", "80%", "80%", "90%", "80%", "80%", "90%", "90%"]

Kindly give each listed record's Post-emergence action against VIOTR in %.
1. COC(=O)COc1nn(-c2ncccc2C)c(-c2cncc(F)c2)c1Br
2. CCOC(=O)COc1nn(-c2nc(F)ccc2F)c(-c2ccc(F)nc2)c1Cl
3. COC(=O)[C@@H](C)Oc1nn(-c2ccccn2)c(-c2cncc(F)c2)c1Cl
4. COC(=O)C(C)OC(=O)C(C)Oc1nn(-c2ccccn2)c(-c2ccc(F)nc2)c1Br (centres unmarked)
5. CCOC(=O)COc1nn(-c2ccncc2)c(-c2ccc(F)nc2)c1Br

Result string:
1: 90%; 2: 80%; 3: 90%; 4: 80%; 5: 80%

Kindly give each listed record's Post-emergence action against VIOTR in %.
1. COC(=O)COc1nn(-c2ncccc2F)c(-c2ccc(F)nc2)c1Cl
2. CCOC(=O)[C@@H](C)Oc1nn(-c2nc(F)ccc2F)c(-c2cncc(F)c2)c1Br
3. CCOC(=O)COc1nn(-c2ncccc2F)c(-c2cncc(F)c2)c1C1CC1

Result string:
1. 90%
2. 80%
3. 80%

----------
# Tested on: Oryza sativa (ORYSA)
# Assay type: in vivo
# Condition Notes: crop plant compatibility, 20 g/ha, effect vs untreated controls
Provide the reported Post-emergence action against ORYSA in % of each item.
I'd appreciate it if you included the unit after the number.

{"columns": ["Molecule", "Result"],
 "data": [
  ["O=C(COc1nn(-c2ccnc(Cl)c2)c(-c2ccc(F)nc2)c1Br)NS(=O)(=O)CC(F)(F)F", "0%"],
  ["COC(=O)CNC(=O)COc1nn(-c2cccnc2C)c(-c2cncc(F)c2)c1Br", "0%"],
  ["Cc1cccnc1-n1nc(OCC(=O)O)c(Cl)c1-c1cncc(F)c1", "10%"],
  ["CCOC(=O)COc1nn(-c2ccncc2F)c(-c2ccc(F)nc2)c1Br", "10%"],
  ["COC(=O)CCOC(=O)COc1nn(-c2cccnc2C)c(-c2cncc(F)c2)c1Br", "0%"],
  ["C[C@@H](Oc1nn(-c2ncccc2F)c(-c2ccnc(F)c2)c1Br)C(=O)O", "0%"],
  ["O=C(O)COc1nn(-c2ccccn2)c(-c2ccc(F)nc2)c1Cl [Example I-266]", "20%"],
  ["COC(=O)[C@@H](C)Oc1nn(-c2ncccc2F)c(-c2ccnc(F)c2)c1I", "0%"]
]}

Continue with the molecule presented below.
Query string: So what does the record say about Post-emergence action against ORYSA in % for `CCOC(=O)COc1nn(-c2ncccc2F)c(-c2ccc(F)nc2)c1I` ?
Result string: 0%
